system: A498; assay: NCI tumour cell line growth inhibition, 48 h
Activity calls are given as the source filed them. No stated cut-off is given here; in the data, active = GI50 up to about 1.1 µM and inactive = higher.
Reply using exactly one outcome from 1.0 = active, 0.0 = inactive

Task: Each compound tested received a call. Report the one for COc1ccc(Nc2nc3cc(C(F)(F)F)ccc3n3cccc23)cc1OC .
Result: 0.0

Task: Follow-up entry: COc1ccc(-c2csc3c2-n2cccc2C3=O)cc1
Result: 1.0

* * *

tested on: MDA-N; assay: NCI tumour cell line growth inhibition, 48 h
Calls of active or inactive are those of the source. Cut-off read from the data, not from the text of the source: active = GI50 up to about 1.1 µM and inactive = higher.
Reply using exactly one outcome from 1 = active, -1 = inactive

See these solved cases before continuing.
Task: Each compound tested received a call. Report the one for COc1ccc(-c2cc(=O)c3c(O)cc(C)cc3o2)cc1OC .
Result: -1

Task: Follow-up entry: Cc1ccc2c(c1)C=CC(C#N)N2C(=O)Oc1ccccc1 (centres undefined)
Result: -1

Task: Follow-up entry: N#CCc1nc(O)c2ccccc2n1
Result: -1

Task: Follow-up entry: COC1/C=C\OC2(C)Oc3c(C)c(O)c4c(O)c(c(CN(C)C)c(O)c4c3C2=O)NC(=O)/C(C)=C\C=C/C(C)C(O)C(C)C(O)C(C)C(OC(C)=O)C1C (centres undefined)
Result: -1

Task: Follow-up entry: COc1cc(/C=C2\CCC(C)C3C2=NN(C(C)=O)C3c2cc(OC)c(OC)c(OC)c2)cc(OC)c1OC (centres undefined)
Result: -1

Others:
Task: Each compound tested received a call. Report the one for Cc1cc2c(O)c(c1)COCc1cc(C)cc(c1O)COCc1cc(C)cc(c1O)COC2 .
Result: -1

Task: Follow-up entry: CN(C(=O)C12C3(C(=O)O)C4C5(C(=O)O)C3C1(C(=O)O)C5C42C(=O)O)C(C)(C)C (centres undefined)
Result: -1
